# Lookup of reported t1/2 (sec) 120° C. keyed by entry
assay.procedure: Half-crystallisation time (t1/2), isothermal DSC
Type: physicochemical
conditions.used: 120 °C; 1% salt in PET, 2-roll mill 270 °C 5 min; after melting 1 minute at 290 °C
Write the numeric value and append its unit.

O=C(O)c1ccc(O)cc1O [2,4-dihydroxy benzoic acid]: 45 s
O=C(O)c1ccccc1[N+](=O)[O-]: 45 s
O=C(O)c1ccc([N+](=O)[O-])cc1: 54 s
O=C(O)c1ccc(Cl)cc1Cl: 35 s

Ask: Entry under review: O=C(O)c1cc([N+](=O)[O-])cc([N+](=O)[O-])c1 . Reported t1/2 (sec) 120° C.?
Reply: 45 s
